// provenance: patent US4612372A

assay: Stability against liver homogenate of mice; assay type: in vitro ADME, mice (ICB strain); settings: pH 7.2; mouse liver homogenate supernatant, 37° C., contact 60 minutes; read-out: Residual Intact Compound Rate
Record form. Attribute: remaining at 1 h. Fill in for each entry.
Give bare numbers, in %.

Observe how each entry below is paired with its result.
CCC1OC(=O)CC(O)C(C)C(OC2OC(C)C(OC3CC(C)(O)C(OC(=O)CSc4ccccc4)C(C)O3)C(N(C)C)C2O)C(CC=O)CC(C)C(=O)C=CC(C)=CC1COC1OC(C)C(O)C(OC)C1OC (stereo not shown) [Control 2, 4"-O-phenylthioacetyltylosin]; 0
CCC1OC(=O)CC(O)C(C)C(OC2OC(C)C(OC3CC(C)(O)C(OC(=O)Cc4ccc(F)cc4)C(C)O3)C(N(C)C)C2O)C(CC=O)CC(C)C(=O)C=CC(C)=CC1COC1OC(C)C(O)C(OC)C1OC (stereo not shown); 95

I'm hoping you can list remaining at 1 h for every compound here, please.
1. CCC1OC(=O)CC(O)C(C)C(OC2OC(C)C(OC3CC(C)(O)C(OC(=O)Cc4ccc(SC)cc4)C(C)O3)C(N(C)C)C2O)C(CC=O)CC(C)C(=O)C=CC(C)=CC1COC1OC(C)C(O)C(OC)C1OC (stereo not shown)
2. CCC1OC(=O)CC(O)C(C)C(OC2OC(C)C(OC3CC(C)(O)C(OC(=O)Cc4ccccc4F)C(C)O3)C(N(C)C)C2O)C(CC=O)CC(C)C(=O)C=CC(C)=CC1COC1OC(C)C(O)C(OC)C1OC (stereo not shown)
3. CCC1OC(=O)CC(O)C(C)C(OC2OC(C)C(OC3CC(C)(O)C(OC(=O)Cc4ccc(S(C)(=O)=O)cc4)C(C)O3)C(N(C)C)C2O)C(CC=O)CC(C)C(=O)C=CC(C)=CC1COC1OC(C)C(O)C(OC)C1OC (stereo not shown)

Solution:
84
95
89
